The reported numbers originate from paper PMC10178204.

Tested on: blood agar plate (Columbia CNA Agar)
Assay: Hemolysis on blood agar plate
Conditions: 50 μg spotted on blood agar, 35 ± 2 °C, 24 h
Non-standard residues stand in square brackets, D forms with d. Residues, ends and D or L forms follow the SMILES beside them. *: point of attachment. Leu(ol) = CC(C)C[C@H](N)CO; Octanoyl = CCCCCCCC(=O)*; Aib = CC(C)(N)C(=O)O

compound: CCCCCCCC(=O)NC(C)(C)C(=O)NCC(=O)N[C@@H](CC(C)C)C(=O)NC(C)(C)C(=O)N[C@@H](CCCCN)C(=O)N[C@@H](CCCCN)C(=O)N[C@@H](CC(C)C)C(=O)NC(C)(C)C(=O)NCC(=O)N[C@H](C(=O)N[C@H](CO)CC(C)C)[C@@H](C)CC [Peptide 4]
Hemolytic activity (in words): non-hemolytic
//
compound: CCCCCCCC(=O)NC(C)(C)C(=O)N[C@@H](CCCCN)C(=O)N[C@@H](CC(C)C)C(=O)NC(C)(C)C(=O)N[C@@H](CCCCN)C(=O)N[C@@H](CCCCN)C(=O)N[C@@H](CC(C)C)C(=O)NC(C)(C)C(=O)N[C@@H](CCCCN)C(=O)N[C@H](C(=O)N[C@H](CO)CC(C)C)[C@@H](C)CC [Peptide 7] (Octanoyl-[Aib]KL[Aib]KKL[Aib]KI[Leu(ol)])
Hemolytic activity (in words): non-hemolytic

====

System: blood agar plate (Columbia CNA Agar)
Assay: Hemolysis on blood agar plate
Conditions: 50 μg peptide (2 μL of 25 mg/mL in DMSO) spotted on blood agar, 35 ± 2 °C, 24 h, visual, triplicate
Non-standard residues stand in square brackets, D forms with d. Residues, ends and D or L forms follow the SMILES beside them. *: point of attachment. Leu(ol) = CC(C)C[C@H](N)CO; Octanoyl = CCCCCCCC(=O)*; Api = NC1(C(=O)O)CCNCC1; Aib = CC(C)(N)C(=O)O
recordedEndpoint: Hemolysis (class)

Examples from the recorded data:
compound: CCCCCCCC(=O)NC(C)(C)C(=O)NCC(=O)N[C@@H](CC(C)C)C(=O)NC(C)(C)C(=O)NCC(=O)NCC(=O)N[C@@H](CC(C)C)C(=O)NC(C)(C)C(=O)NCC(=O)N[C@H](C(=O)N[C@H](CO)CC(C)C)[C@@H](C)CC [Peptide 0, Trichogin GA IV, reference compound] (Octanoyl-[Aib]GL[Aib]GGL[Aib]GI[Leu(ol)])
Hemolysis (class): -
//
compound: CCCCCCCC(=O)NC(C)(C)C(=O)N[C@@H](CCCCN)C(=O)N[C@@H](CC(C)C)C(=O)NC(C)(C)C(=O)NCC(=O)NCC(=O)N[C@@H](CC(C)C)C(=O)NC(C)(C)C(=O)NCC(=O)N[C@H](C(=O)N[C@@H](CC(C)C)C(N)=O)[C@@H](C)CC [Peptide 2] (Octanoyl-[Aib]KL[Aib]GGL[Aib]GIL-NH2)
Hemolysis (class): +
//
compound: CCCCCCCC(=O)NC(C)(C)C(=O)NCC(=O)N[C@@H](CC(C)C)C(=O)NC(C)(C)C(=O)NCC(=O)N[C@@H](CCCCN)C(=O)N[C@@H](CC(C)C)C(=O)NC(C)(C)C(=O)NCC(=O)N[C@H](C(=O)N[C@H](CO)CC(C)C)[C@@H](C)CC [Peptide 10]
Hemolysis (class): +
//
compound: CCCCCCCC(=O)NC(C)(C)C(=O)NCC(=O)N[C@@H](CC(C)C)C(=O)NC(C)(C)C(=O)NCC(=O)NCC(=O)N[C@@H](CC(C)C)C(=O)NC(C)(C)C(=O)N[C@@H](CCCCN)C(=O)N[C@H](C(=O)N[C@H](CO)CC(C)C)[C@@H](C)CC [Peptide 9] (Octanoyl-[Aib]GL[Aib]GGL[Aib]KI[Leu(ol)])
Hemolysis (class): +
//
compound: CCCCCCCC(=O)NC(C)(C)C(=O)NCC(=O)N[C@@H](CC(C)C)C(=O)N[C@@H](CC(C)C)C(=O)NCC(=O)NCC(=O)N[C@@H](CC(C)C)C(=O)NC(C)(C)C(=O)NCC(=O)N[C@H](C(=O)N[C@@H](CC(C)C)C(N)=O)[C@@H](C)CC [Peptide 3] (Octanoyl-[Aib]GLLGGL[Aib]GIL-NH2)
Hemolysis (class): -

Return reported Hemolysis (class); argument: CCCCCCCC(=O)NC(C)(C)C(=O)NCC(=O)N[C@@H](CC(C)C)C(=O)NC(C)(C)C(=O)N[C@@H](CCCCN)C(=O)NC(C)(C)C(=O)N[C@@H](CC(C)C)C(=O)NC(C)(C)C(=O)NCC(=O)N[C@H](C(=O)N[C@H](CO)CC(C)C)[C@@H](C)CC [Peptide 6] (Octanoyl-[Aib]GL[Aib]K[Aib]L[Aib]GI[Leu(ol)])
+

Would you mind doing CCCCCCCC(=O)NC(C)(C)C(=O)NCC(=O)N[C@@H](CC(C)C)C(=O)NC(C)(C)C(=O)NCC(=O)NCC(=O)N[C@@H](CC(C)C)C(=O)NC1(C(=O)NCC(=O)N[C@H](C(=O)N[C@@H](CC(C)C)C(N)=O)[C@@H](C)CC)CCNCC1 [Peptide 8] (Octanoyl-[Aib]GL[Aib]GGL[Api]GIL-NH2) as well?
+

Follow-up item: CCCCCCCC(=O)NC(C)(C)C(=O)NCC(=O)N[C@@H](CC(C)C)C(=O)NC(C)(C)C(=O)N[C@@H](CCCCN)C(=O)NC(C)(C)C(=O)N[C@@H](CC(C)C)C(=O)NC(C)(C)C(=O)NCC(=O)N[C@H](C(=O)N[C@@H](CC(C)C)C(N)=O)[C@@H](C)CC [Peptide 6b] (Octanoyl-[Aib]GL[Aib]K[Aib]L[Aib]GIL-NH2)
-

Then this compound: CCCCCCCC(=O)NC(C)(C)C(=O)N[C@@H](CCCCN)C(=O)N[C@@H](CC(C)C)C(=O)NC(C)(C)C(=O)N[C@@H](CCCCN)C(=O)N[C@@H](CCCCN)C(=O)N[C@@H](CC(C)C)C(=O)NC(C)(C)C(=O)NCC(=O)N[C@H](C(=O)N[C@@H](CC(C)C)C(N)=O)[C@@H](C)CC [Peptide 11] (Octanoyl-[Aib]KL[Aib]KKL[Aib]GIL-NH2)
-

====

Test system: Staphylococcus aureus ATCC 25923
Settings: MHB, 5 × 10^5 CFU/mL, 18 h, 35 °C, triplicate
Non-standard residues stand in square brackets, D forms with d. Residues, ends and D or L forms follow the SMILES beside them. *: point of attachment. Leu(ol) = CC(C)C[C@H](N)CO; Octanoyl = CCCCCCCC(=O)*; Aib = CC(C)(N)C(=O)O
recordedEndpoint: MBC Sau (µg/mL)
Please state the figure in µg/mL; there is no need to write the unit.

Fill blank: measured MBC Sau of the compound CCCCCCCC(=O)NC(C)(C)C(=O)NCC(=O)N[C@@H](CC(C)C)C(=O)NC(C)(C)C(=O)N[C@@H](CCCCN)C(=O)NC(C)(C)C(=O)N[C@@H](CC(C)C)C(=O)NC(C)(C)C(=O)NCC(=O)N[C@H](C(=O)N[C@H](CO)CC(C)C)[C@@H](C)CC [Peptide 6] (Octanoyl-[Aib]GL[Aib]K[Aib]L[Aib]GI[Leu(ol)]) is ____.
16

Can you handle CCCCCCCC(=O)NC(C)(C)C(=O)N[C@@H](CCCCN)C(=O)N[C@@H](CC(C)C)C(=O)NC(C)(C)C(=O)N[C@@H](CCCCN)C(=O)N[C@@H](CCCCN)C(=O)N[C@@H](CC(C)C)C(=O)NC(C)(C)C(=O)N[C@@H](CCCCN)C(=O)N[C@H](C(=O)N[C@H](CO)CC(C)C)[C@@H](C)CC [Peptide 7] (Octanoyl-[Aib]KL[Aib]KKL[Aib]KI[Leu(ol)]) next?
32

Consider next the compound CCCCCCCC(=O)NC(C)(C)C(=O)NCC(=O)N[C@@H](CC(C)C)C(=O)NC(C)(C)C(=O)NCC(=O)NCC(=O)N[C@@H](CC(C)C)C(=O)NC(C)(C)C(=O)N[C@@H](CCCCN)C(=O)N[C@H](C(=O)N[C@H](CO)CC(C)C)[C@@H](C)CC [Peptide 9] (Octanoyl-[Aib]GL[Aib]GGL[Aib]KI[Leu(ol)]) in the same way.
16

Try this compound next: CCCCCCCC(=O)NC(C)(C)C(=O)N[C@@H](CCCCN)C(=O)N[C@@H](CC(C)C)C(=O)NC(C)(C)C(=O)NCC(=O)NCC(=O)N[C@@H](CC(C)C)C(=O)NC(C)(C)C(=O)NCC(=O)N[C@H](C(=O)N[C@@H](CC(C)C)C(N)=O)[C@@H](C)CC [Peptide 2] (Octanoyl-[Aib]KL[Aib]GGL[Aib]GIL-NH2)
8

Query CCCCCCCC(=O)NC(C)(C)C(=O)NCC(=O)N[C@@H](CC(C)C)C(=O)NC(C)(C)C(=O)NCC(=O)N[C@@H](CCCCN)C(=O)N[C@@H](CC(C)C)C(=O)NC(C)(C)C(=O)NCC(=O)N[C@H](C(=O)N[C@H](CO)CC(C)C)[C@@H](C)CC [Peptide 10] next
16

Entry CCCCCCCC(=O)NC(C)(C)C(=O)NCC(=O)N[C@@H](CC(C)C)C(=O)NC(C)(C)C(=O)N[C@@H](CCCCN)C(=O)NC(C)(C)C(=O)N[C@@H](CC(C)C)C(=O)NC(C)(C)C(=O)NCC(=O)N[C@H](C(=O)N[C@@H](CC(C)C)C(N)=O)[C@@H](C)CC [Peptide 6b] (Octanoyl-[Aib]GL[Aib]K[Aib]L[Aib]GIL-NH2) please
128

Repeat for the following compound: CCCCCCCC(=O)NC(C)(C)C(=O)NCC(=O)N[C@@H](CC(C)C)C(=O)NC(C)(C)C(=O)N[C@@H](CCCCN)C(=O)N[C@@H](CCCCN)C(=O)N[C@@H](CC(C)C)C(=O)NC(C)(C)C(=O)NCC(=O)N[C@H](C(=O)N[C@H](CO)CC(C)C)[C@@H](C)CC [Peptide 4]
16
